B1: glmS ribozyme (parent)
chain: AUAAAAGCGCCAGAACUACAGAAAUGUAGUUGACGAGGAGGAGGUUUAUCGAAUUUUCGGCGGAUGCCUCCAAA

Variants of: B1
Experiment: self-cleavage kobs at 640 uM GlcN6P; higher = faster cleavage; RNA array
Details: with glucosamine-6-phosphate
Variants at the floor of the assay were thinned out.
Label rule, in plain words: self-cleavage kobs at 640 uM GlcN6P of 0.0002 s⁻¹ and up is YES, under 0.0002 s⁻¹ is NO.

Check out these entries, answers already filled in.
* C10G C61U | NO
* A12G C58G C71U | NO
* C8G A15G | NO

Request: self-cleavage kobs at 640 uM GlcN6P >= 0.0002 s⁻¹ for G9C A12G G29A ?
Result: NO

Request: self-cleavage kobs at 640 uM GlcN6P >= 0.0002 s⁻¹ for G60A A64U ?
Result: NO

Request: self-cleavage kobs at 640 uM GlcN6P >= 0.0002 s⁻¹ for G13U G35A U45A A64G ?
Result: NO

Request: self-cleavage kobs at 640 uM GlcN6P >= 0.0002 s⁻¹ for G40C G51A ?
Result: NO

Request: self-cleavage kobs at 640 uM GlcN6P >= 0.0002 s⁻¹ for C8U A36C A48G U49C ?
Result: NO

The reported numbers originate from the supplement of paper PMC7125110.
